Recorded IC50, one value per entry.
- SYSTEM UNDER TEST: Transient receptor potential cation channel subfamily M member 8 (Homo sapiens)
- Sequence (Q7Z2W7 whole entry): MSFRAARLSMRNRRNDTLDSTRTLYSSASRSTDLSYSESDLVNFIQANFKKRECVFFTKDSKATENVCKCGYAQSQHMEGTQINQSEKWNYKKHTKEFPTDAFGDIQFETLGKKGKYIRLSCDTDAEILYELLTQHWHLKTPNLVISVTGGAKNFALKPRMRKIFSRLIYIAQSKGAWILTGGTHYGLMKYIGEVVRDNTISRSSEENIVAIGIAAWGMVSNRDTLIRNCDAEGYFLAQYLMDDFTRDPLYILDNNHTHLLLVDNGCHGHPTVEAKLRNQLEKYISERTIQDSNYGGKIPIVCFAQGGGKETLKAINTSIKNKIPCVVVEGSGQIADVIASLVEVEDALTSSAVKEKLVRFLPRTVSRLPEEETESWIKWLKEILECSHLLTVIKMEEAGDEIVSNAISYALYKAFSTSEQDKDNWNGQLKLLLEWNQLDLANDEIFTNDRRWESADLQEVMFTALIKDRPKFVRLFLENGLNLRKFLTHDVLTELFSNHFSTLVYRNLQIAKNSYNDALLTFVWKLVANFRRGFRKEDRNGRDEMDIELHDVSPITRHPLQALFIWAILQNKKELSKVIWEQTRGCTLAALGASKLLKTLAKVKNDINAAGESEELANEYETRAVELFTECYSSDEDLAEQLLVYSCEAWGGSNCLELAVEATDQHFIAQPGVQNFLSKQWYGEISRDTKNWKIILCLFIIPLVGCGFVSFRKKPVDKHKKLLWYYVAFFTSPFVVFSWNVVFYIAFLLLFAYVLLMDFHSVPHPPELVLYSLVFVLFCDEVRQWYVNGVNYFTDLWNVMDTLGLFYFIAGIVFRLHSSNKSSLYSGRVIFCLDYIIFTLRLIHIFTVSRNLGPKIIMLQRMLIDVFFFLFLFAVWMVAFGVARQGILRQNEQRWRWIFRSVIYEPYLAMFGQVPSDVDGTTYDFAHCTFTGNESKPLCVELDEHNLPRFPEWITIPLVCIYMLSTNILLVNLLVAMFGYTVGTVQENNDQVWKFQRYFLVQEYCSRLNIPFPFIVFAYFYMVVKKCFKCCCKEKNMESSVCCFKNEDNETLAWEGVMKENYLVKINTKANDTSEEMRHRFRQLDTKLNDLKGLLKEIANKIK
- EXPERIMENT NOTES: Inhibition of human TRPM8 expressed in HEK293 cells assessed as reduction in ethyl 4-methoxy-2-phenylthiazole-5-carboxylate induced Ca2+ efflux preincubated for 5 mins followed by ethyl 4-methoxy-2-phenylthiazole-5-carboxylate addition and measured for 3 mins by FLIPR assay
- Assay type: cell-based

O=C(O)c1sc(-c2ccccc2)nc1O > 100 µM
CCOC(=O)c1sc(-c2ccccc2)nc1CO > 100 µM

Query CCn1nnc(-c2sc(-c3ccc(F)cc3)nc2O)n1 yields IC50 of 0.286 µM

Query CC(C)CC(=O)c1sc(-c2cccc(F)c2)nc1O yields IC50 of 0.289 µM

Query Cc1nnc(-c2sc(-c3cccc(F)c3)nc2O)o1 yields IC50 of 9.1 µM

Query CCOC(=O)c1sc(-c2ccccc2)nc1OC yields IC50 of > 100 µM

Query CCOC(=O)c1sc(-c2ccccc2)nc1N yields IC50 of > 100 µM

Query CCn1nnnc1-c1sc(-c2cccc(F)c2)nc1O yields IC50 of > 100 µM
